Target: rat RXFP2 (Rattus norvegicus, UniProt F7EMH8)
Sequence (F7EMH8 20-737): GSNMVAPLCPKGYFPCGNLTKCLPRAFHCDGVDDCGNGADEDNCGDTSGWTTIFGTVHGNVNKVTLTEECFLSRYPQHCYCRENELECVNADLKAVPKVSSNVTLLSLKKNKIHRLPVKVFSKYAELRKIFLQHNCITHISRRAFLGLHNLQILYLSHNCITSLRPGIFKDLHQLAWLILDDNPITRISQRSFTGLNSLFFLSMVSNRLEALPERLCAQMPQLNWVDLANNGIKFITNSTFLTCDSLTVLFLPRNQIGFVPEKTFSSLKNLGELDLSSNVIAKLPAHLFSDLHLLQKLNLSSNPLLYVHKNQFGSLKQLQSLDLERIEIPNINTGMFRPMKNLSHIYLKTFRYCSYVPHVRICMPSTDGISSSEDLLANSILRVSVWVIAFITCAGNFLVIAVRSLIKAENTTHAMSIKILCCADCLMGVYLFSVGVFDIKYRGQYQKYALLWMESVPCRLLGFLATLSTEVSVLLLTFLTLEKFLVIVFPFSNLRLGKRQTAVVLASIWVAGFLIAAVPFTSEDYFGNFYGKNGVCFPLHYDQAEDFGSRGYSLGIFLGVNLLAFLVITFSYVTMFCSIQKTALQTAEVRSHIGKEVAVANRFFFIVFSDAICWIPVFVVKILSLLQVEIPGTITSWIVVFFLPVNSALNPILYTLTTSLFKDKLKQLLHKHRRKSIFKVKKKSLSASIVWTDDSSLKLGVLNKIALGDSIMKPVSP
Experiment: INSL3-stimulated CYP11B1 mRNA expression in H295R stably expressing rat RXFP2
Format: cell-based
Set-up: expressed in transfected cells
Settings: INSL3 EC80 (3.5 nM), 48 h, qPCR; N = 2
Protocol: RXFP2 antagonists were added to H295R-rRXFP2 before addition of INSL3 EC80 (3.5 nM) for 48 h, whereupon the cells and supernatants were collected. CYP11B1 and CYP11B2 mRNA were determined by qPCR and the RXFP2 blocker potencies were calculated (Fig. 5a). Fifteen antibodies have IC50s < 50 nM, and three of the top antibodies (1F2, 4G6, and 2D4) were selected for evaluation in steroid hormone secretion assays by ELISA. Data entered as XY table, with x = [Inhibitor] […]
// reported pIC50 for each item listed
On this scale, pIC50 is minus log10 of a concentration expressed in M (mol/L).

Looking for the measured pIC50 of 4B8: RXFP2 monoclonal antibody from hybridoma, recombinantly expressed in a rat IgG2b backbone (antibody, V domains shown) VH: QVQLKQSGPGLVQPSQSLSITCTVSGFSLSRYGVHWVRQSPGKGLEWLGVIWSGGSTEYNAVFKSRLSISKDNSKSQVFFKMNSLQANDTAIYYCVRADGYYAMEYWGQGTSVTVSS VL: DIQMTQSPASLSVSVGETVTITCRASENIYSNLAWYQQKQGKSPQLLVYAVTNLADGVPSRFSGSGSGTQYSLKINSLQSEDFGNYYCQHFWGTPYTFGGGTKLEIK , can you help? 9.64

Now for another entry.
Looking for the measured pIC50 of 3G4: RXFP2 monoclonal antibody from hybridoma, recombinantly expressed in a rat IgG2b backbone (antibody, V domains shown) VH: QVQLKESGPGLVAPSQSLSITCTVSGFSLTSYGVSWVRQPPGKGLEWLGVIWGDGSTNYHSALISRLSISKDNSKSQVFLKLNSLQTDDTATYYCAKSLGYYAMDYWGQGTSVTVSS VL: DIQMTQSPASLSVSVGETVTITCRASENIYSNLVWYQQKQGKSPQLLVYAATNLAEGVPSRFSGSGSGTQYSLKINSLQSEDFGSYYCQHFWGPPWTFGGGTKLEIK , can you help? 9.48
